Parameter 'readout' = IC50; parameter 'system' = Sucrase-isomaltase, intestinal (Rattus norvegicus).
Sequence (P23739 1-1013 limits assumed): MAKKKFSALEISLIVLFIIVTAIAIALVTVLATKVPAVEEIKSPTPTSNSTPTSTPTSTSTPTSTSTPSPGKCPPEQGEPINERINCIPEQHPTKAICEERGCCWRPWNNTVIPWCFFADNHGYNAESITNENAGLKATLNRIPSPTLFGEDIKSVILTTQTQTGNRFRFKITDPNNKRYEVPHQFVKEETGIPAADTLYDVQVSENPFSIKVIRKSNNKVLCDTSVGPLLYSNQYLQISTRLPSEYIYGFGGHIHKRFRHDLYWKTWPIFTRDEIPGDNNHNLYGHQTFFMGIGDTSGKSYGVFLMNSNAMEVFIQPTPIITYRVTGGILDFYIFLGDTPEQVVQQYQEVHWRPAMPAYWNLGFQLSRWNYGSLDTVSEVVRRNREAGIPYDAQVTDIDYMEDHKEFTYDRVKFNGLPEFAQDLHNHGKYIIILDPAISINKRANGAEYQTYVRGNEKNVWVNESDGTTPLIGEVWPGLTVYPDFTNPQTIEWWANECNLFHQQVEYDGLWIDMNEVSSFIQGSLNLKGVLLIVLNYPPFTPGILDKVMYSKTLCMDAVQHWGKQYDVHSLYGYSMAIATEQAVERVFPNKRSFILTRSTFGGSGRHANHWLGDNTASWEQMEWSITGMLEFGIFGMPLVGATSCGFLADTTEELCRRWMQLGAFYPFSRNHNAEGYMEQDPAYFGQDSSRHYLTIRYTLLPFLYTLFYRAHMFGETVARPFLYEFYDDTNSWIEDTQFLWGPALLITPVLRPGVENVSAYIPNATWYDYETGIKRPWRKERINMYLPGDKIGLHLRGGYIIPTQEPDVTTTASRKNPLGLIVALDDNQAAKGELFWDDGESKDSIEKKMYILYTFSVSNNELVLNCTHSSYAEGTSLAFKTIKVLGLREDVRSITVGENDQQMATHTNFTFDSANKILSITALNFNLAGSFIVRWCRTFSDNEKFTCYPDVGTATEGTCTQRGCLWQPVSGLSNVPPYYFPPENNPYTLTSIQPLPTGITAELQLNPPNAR
Sequence (P23739 1014-1841 limits assumed): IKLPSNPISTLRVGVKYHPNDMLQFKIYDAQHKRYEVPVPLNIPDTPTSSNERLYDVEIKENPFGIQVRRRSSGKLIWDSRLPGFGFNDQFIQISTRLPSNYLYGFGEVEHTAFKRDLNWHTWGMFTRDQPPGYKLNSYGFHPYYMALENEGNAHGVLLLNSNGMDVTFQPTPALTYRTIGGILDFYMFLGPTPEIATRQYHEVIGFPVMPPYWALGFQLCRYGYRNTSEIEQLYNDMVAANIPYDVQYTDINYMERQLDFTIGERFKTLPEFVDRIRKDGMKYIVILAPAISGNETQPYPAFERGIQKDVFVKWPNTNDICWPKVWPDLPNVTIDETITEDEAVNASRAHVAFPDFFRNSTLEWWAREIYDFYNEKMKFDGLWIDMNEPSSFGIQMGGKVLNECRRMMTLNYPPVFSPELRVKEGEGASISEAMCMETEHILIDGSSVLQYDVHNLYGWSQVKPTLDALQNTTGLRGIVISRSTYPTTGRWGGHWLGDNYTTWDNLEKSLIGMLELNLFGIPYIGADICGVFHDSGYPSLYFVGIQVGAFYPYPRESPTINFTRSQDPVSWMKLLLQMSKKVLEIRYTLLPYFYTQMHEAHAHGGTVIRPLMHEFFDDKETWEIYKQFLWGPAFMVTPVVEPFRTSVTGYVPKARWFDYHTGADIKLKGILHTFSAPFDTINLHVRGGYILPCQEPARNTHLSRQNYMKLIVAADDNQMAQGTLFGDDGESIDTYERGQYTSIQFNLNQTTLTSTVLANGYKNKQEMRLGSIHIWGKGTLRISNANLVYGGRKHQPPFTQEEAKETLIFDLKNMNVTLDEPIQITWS

Worked cases, answers included:
compound: CC1=CC(=O)CC(C)(C)[C@H]1/C=C/[C@H](C)O[C@@H]1O[C@H](CO)[C@@H](O)[C@H](O)[C@H]1O
tgt: Sucrase-isomaltase, intestinal (Rattus norvegicus)
IC50: > 1000 µM
//
compound: CC1(C)[C@@H](O)CC[C@]2(C)[C@H]3CC[C@@H]4C=C[C@H](O)[C@@]4(C)[C@]3(C)CC[C@@H]12
tgt: Sucrase-isomaltase, intestinal (Rattus norvegicus)
IC50: > 1000 µM

Request: API: value(readout= IC50, system= Sucrase-isomaltase, intestinal (Rattus norvegicus), query= CC1=CC(=O)CC(C)(C)/C1=C/CC(C)O[C@@H]1O[C@H](CO)[C@@H](O)[C@H](O)[C@H]1O (stereo partly drawn) )
Result: > 1000 µM

----------
# tgt: Sucrase-isomaltase, intestinal (Rattus norvegicus) (UniProt P23739)
# Sequence (P23739 1-1013 limits assumed): as the sequence (P23739 1-1013 limits assumed) above
# Sequence (P23739 1014-1841 limits assumed): as the sequence (P23739 1014-1841 limits assumed) above
# method.description: Inhibition of rat intestinal sucrase using p-nitrophenyl-alpha-d-glucopyranoside as substrate at 1 mM incubated for 10 mins prior to substrate addition measured after 5 mins by spectrophotometry
Could you please classify the records by inhibition using these ranges: bucket A (below 30%), bucket B (30% to below 70%), bucket C (70% or more)

Answered cases to consult:
compound: Oc1cc(O)c2c(c1)O[C@H](c1ccc(O)c(O)c1)[C@@H](O)C2
tgt: Sucrase-isomaltase, intestinal (Rattus norvegicus) (UniProt P23739)
class.name: bucket C
--
compound: CC1=CC(=O)CC(C)(C)/C1=C/CC(C)O[C@@H]1O[C@H](CO)[C@@H](O)[C@H](O)[C@H]1O (stereo partly drawn)
tgt: Sucrase-isomaltase, intestinal (Rattus norvegicus) (UniProt P23739)
class.name: bucket A
--
compound: CC1=CC(=O)CC(C)(C)[C@H]1/C=C/[C@H](C)O[C@@H]1O[C@H](CO)[C@@H](O)[C@H](O)[C@H]1O
tgt: Sucrase-isomaltase, intestinal (Rattus norvegicus) (UniProt P23739)
class.name: bucket A
--
compound: C=C(C)[C@@H]1CC[C@]2(C(=O)O)CC[C@]3(C)[C@H](CC[C@@H]4[C@@]5(C)CC[C@H](O)C(C)(C)[C@@H]5CC[C@]43C)[C@@H]12
tgt: Sucrase-isomaltase, intestinal (Rattus norvegicus) (UniProt P23739)
class.name: bucket A
--
compound: C[C@H]1O[C@H](O[C@H]2[C@H](O)[C@@H](O)[C@@H](O[C@H]3[C@H](O)[C@@H](O)C(O)O[C@@H]3CO)O[C@@H]2CO)[C@H](O)[C@@H](O)[C@@H]1N[C@H]1C=C(CO)[C@@H](O)[C@H](O)[C@H]1O (stereo partly drawn)
tgt: Sucrase-isomaltase, intestinal (Rattus norvegicus) (UniProt P23739)
class.name: bucket B

Request: Into which bin does this compound go? `C[C@@H]1CC[C@]2(C(=O)O)CC[C@]3(C)C(=CC[C@@H]4[C@@]5(C)C=C(O)C(=O)C(C)(C)[C@@H]5CC[C@]43C)[C@@H]2[C@]1(C)O`
Result: bucket A

Request: Class label required: CC1=CC(=O)CC(C)(C)/C1=C\CC(C)O[C@@H]1O[C@H](CO)[C@@H](O)[C@H](O)[C@H]1O (stereo partly drawn)
Result: bucket A

Request: # classify by inhibition band: `C[C@@H]1CC[C@]2(C(=O)O)CC[C@]3(C)C(=CC[C@@H]4[C@@]5(C)CC(=O)[C@H](O)C(C)(C)[C@@H]5CC[C@]43C)[C@@H]2[C@]1(C)O`
Result: bucket A

Request: Category of `Oc1ccc([C@@H]2Oc3cc(O)ccc3[C@H](c3c(O)cc(O)c4c3O[C@H](c3ccc(O)c(O)c3)[C@H](O)C4)[C@H]2O)cc1` , please.
Result: bucket C

Request: Tag the class for `Oc1cc(O)c2c(c1)O[C@@]1(c3ccc(O)c(O)c3)Oc3cc(O)c4c(c3[C@@H]2[C@H]1O)O[C@@H](c1ccc(O)c(O)c1)[C@H](O)[C@H]4c1c(O)cc(O)c2c1O[C@H](c1ccc(O)c(O)c1)[C@H](O)C2`
Result: bucket B

Request: Which class holds `Oc1ccc2c(c1)O[C@H](c1ccc(O)c(O)c1)[C@@H](O)[C@@H]2c1c(O)cc2c(c1O)C[C@H](O)[C@@H](c1ccc(O)c(O)c1)O2` ?
Result: bucket C

Request: Class (by measured inhibition) for `CC1=CC(=O)CC(C)(C)[C@H]1/C=C/[C@@H](C)O[C@@H]1O[C@H](CO)[C@@H](O)[C@H](O)[C@H]1O`
Result: bucket A

Request: Please report the category associated with `Oc1cc(O)c2c(c1)O[C@H](c1ccc(O)c(O)c1)[C@@H](O)[C@@H]2c1c(O)cc(O)c2c1O[C@H](c1ccc(O)c(O)c1)[C@@H](O)C2` , nothing else.
Result: bucket C
